Catalogue of Kd values
# Target Or Test System: T1, soluble KIR3DL1*033-Fc (human, UniProt P43629 22-340)
# T1 construct: also called KIR3DL1 allele 033; Allele 033; not shown: Fc domain
# T1 sequence (P43629 other isoform, or with tags, fused parts or gaps): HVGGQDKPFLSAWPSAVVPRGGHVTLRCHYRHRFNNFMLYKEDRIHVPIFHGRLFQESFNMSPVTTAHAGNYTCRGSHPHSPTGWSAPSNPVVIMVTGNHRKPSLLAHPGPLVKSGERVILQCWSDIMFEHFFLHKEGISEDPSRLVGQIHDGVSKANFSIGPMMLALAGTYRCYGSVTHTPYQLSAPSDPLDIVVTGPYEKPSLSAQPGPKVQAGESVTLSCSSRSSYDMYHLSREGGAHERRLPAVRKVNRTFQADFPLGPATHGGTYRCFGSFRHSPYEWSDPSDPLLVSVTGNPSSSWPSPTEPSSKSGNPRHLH
# Method Description: SPR (BIACORE T-100)
// units = nM; emit number, no label

Some binders with known Kd results, for comparison:
Binder	Measured Parameter	Experimental Result
ET160-74 (antibody, human IgG1, V domains shown, Tested as human IgG1 (hIgG1), lambda light chain) VH: QVQLVQSGAEVKKPGSSVKVSCKASGGTFSSYAISWVRQAPGQGLEWMGWMNPNSGNTGYAQKFQGRVTMTRNTSISTAYMELSSLRSEDTAVYYCARYSFHLDGWGQGTLVTVSS VL: QSVLTQPPSVSAAPGQKVTISCSGSSSNVGNNYVSWYQQVPGTAPKLLIYDNNRRPSGIPDRFSGSKSGTSATLGITGLQTGDEADYYCGTWDNSLRVELFGGGTKVTVLG	Kd	62.2
ET160-73 (antibody, human IgG1, V domains shown, Tested as human IgG1 (hIgG1), kappa light chain) VH: QVQLVQSGAEVKKPGESLKISCKGSGYSFTSYWIGWVRQMPGKGLEWMGIIYPGDSDTRYSPSFQGQVTISADKSISTAYLQWSSLKASDTAMYYCARGREQLWLDGMDVWGQGTTVTVSS VL: DVVMTQSPLSLPVTLGQPASISCRSTQSLVHSDGNTYLNWFQQRPGQSPRRLIYGVSNRDFGVPDRFSASGSGTDFTLKINRVEAEDVGVYYCMQGTHWPLTFGQGTKVEIKR	Kd	55.6
ET160-72 (antibody, human IgG1, V domains shown, Tested as human IgG1 (hIgG1), lambda light chain) VH: QVQLVQSGGGVVRSGGSLRLTCAASGFTFGDYGMSWVRQAPGKGLEWVSGINWNGGGTGYADSVKGRFTISRDNAKDSLYLQMNSLRAEDTALYYCARVWGCGSTTCYEGADDAFDIWGQGTMVTVSS VL: LPVLTQPPSISGAPRQRVTISCSGARSNIGNNAVNWYQQVPGEAPKLLIFYDDQQPSGISGRFSGSKSGTSASLAISGLQSEDEADYYCAAWDDSLNGWVFGGGTKLTVLG	Kd	138

Moving on to the next binder.
So what's the measured Kd for this one? ET160-77 (antibody, human IgG1, V domains shown, Tested as human IgG1 (hIgG1), lambda light chain) VH: EVQLVETGGGLVKPGGSLRLSCAASGFTFSDYYMSWIRQAPGKGLEWVSYISSSSSYTNYADSVKGRFTISRDNAKNSLYLQMNSLRAEDTAVYYCAREGIAAADAFDIWGQGTMVTVSS VL: SYELTQPPSVSVAPGQAATITCAGDNIESKSVNWYQQKPGQAPVLVVYDDTVRPSGIPERFSGSNSGNPATLTISRSEAGDEADYYCQVWDNRRDHVVFGGGTKVTVLG
48.3

Values from patent US20200031927A1
